# target_desc: Leishmania DNA topoisomerase type IB (purified recombinant LTopIB) (Leishmania donovani, UniProt A0A3Q8IHS4+Q8WQM6)
# Sequence (Q8WQM6 entry or part of it): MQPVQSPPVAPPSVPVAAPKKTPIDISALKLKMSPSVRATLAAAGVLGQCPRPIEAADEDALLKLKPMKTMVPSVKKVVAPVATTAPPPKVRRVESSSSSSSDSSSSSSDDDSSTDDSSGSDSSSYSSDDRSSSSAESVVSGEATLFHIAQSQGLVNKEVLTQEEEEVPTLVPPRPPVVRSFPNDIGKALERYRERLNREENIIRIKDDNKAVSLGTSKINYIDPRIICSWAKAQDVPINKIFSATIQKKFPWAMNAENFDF
# Sequence (A0A3Q8IHS4 entry or part of it): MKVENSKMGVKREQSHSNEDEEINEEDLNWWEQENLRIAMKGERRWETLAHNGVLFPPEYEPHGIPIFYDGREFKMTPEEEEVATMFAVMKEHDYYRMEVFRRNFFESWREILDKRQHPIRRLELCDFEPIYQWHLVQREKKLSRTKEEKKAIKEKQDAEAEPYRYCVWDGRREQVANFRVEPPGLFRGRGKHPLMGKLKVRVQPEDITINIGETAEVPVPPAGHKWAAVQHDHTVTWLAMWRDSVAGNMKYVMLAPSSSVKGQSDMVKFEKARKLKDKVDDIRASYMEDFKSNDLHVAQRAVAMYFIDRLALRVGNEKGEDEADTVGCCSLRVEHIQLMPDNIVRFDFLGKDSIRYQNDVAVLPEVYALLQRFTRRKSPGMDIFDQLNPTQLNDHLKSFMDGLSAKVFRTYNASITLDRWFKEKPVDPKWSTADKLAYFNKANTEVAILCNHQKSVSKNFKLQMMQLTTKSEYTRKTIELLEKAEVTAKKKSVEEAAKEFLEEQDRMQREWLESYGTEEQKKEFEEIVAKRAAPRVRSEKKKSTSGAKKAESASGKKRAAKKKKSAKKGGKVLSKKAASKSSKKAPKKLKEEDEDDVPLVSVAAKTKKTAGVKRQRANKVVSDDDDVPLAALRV
# experimental_details: Plasmid relaxation assay (relaxation of supercoiled plasmid DNA)
# Format: biochemical
# condition_label: LTopIB inhibition, 50% reduction of supercoiled DNA; read-out: IC50 Using Plasmid Relaxation Assay
pIC50: −log10 of the molar value.
This section presents molecules with their documented pIC50 values.
readout_type: pIC50

> print(dat)
                                    molecule  sign  meas.value
 1  COc1ccc(C2C(Cc3c[nH]c4ccccc34)NC3(C(=O)Nc4ccc(F)cc43)C2C(=O)c2ccc(C3CCCCC3)cc2)cc1 (stereo not shown) [25d]     =        4.57
 2  COc1ccc(C2C3CCCN3C3(C(=O)Nc4ccc(F)cc43)C2C(=O)c2ccc(Br)cc2)cc1 (stereo not shown) [23c]     <        4.00
 3  COc1ccc(C2C3CCCN3C3(C(=O)Nc4ccc([N+](=O)[O-])cc43)C2C(=O)c2ccc(Br)cc2)cc1 (stereo not shown) [23e]     <        4.00
 4  Cc1ccc(C(=O)[C@@H]2[C@@H](c3ccc(Br)cc3)[C@H](Cc3ccccc3)N[C@@]23C(=O)Nc2ccc([N+](=O)[O-])cc23)cc1 [24b]     =        4.42
 5  Cc1ccc(C(=O)C2C(c3ccc(Br)cc3)C(Cc3ccccc3)NC23C(=O)Nc2ccc(I)cc23)cc1 (stereo not shown) [24f]     =        4.71
 6  O=C(c1ccc([N+](=O)[O-])cc1)[C@@H]1[C@@H](c2ccc(Cl)cc2)[C@H](Cc2ccccc2)N[C@@]12C(=O)Nc1c(Br)cccc12 [24e]     =        4.80
 7  COc1ccc([C@@H]2[C@@H](C(=O)c3ccc(F)cc3)[C@]3(C(=O)Nc4ccc(F)cc43)N3CCC[C@@H]23)cc1 [23b]     <        4.00
 8  COc1ccc2c(c1)[C@]1(N[C@@H](Cc3ccccc3)[C@H](c3ccc(Cl)cc3)[C@H]1C(=O)c1ccc([N+](=O)[O-])cc1)C(=O)N2 [24a]     =        4.76
 9  COc1ccc([C@H]2[C@H](Cc3cc4ccccc4[nH]3)N[C@@]3(C(=O)Nc4ccccc43)[C@@H]2C(=O)c2ccc(Br)cc2)cc1 [25b]     =        4.05
10  O=C(c1ccccc1)[C@@H]1[C@@H](c2ccccc2)[C@@H]2CCCN2[C@@]12C(=O)Nc1ccc(Br)cc12 [23f]     <        4.00
11  COc1ccc(C2C3CCCN3C3(C(=O)Nc4ccc(OC)cc43)C2C(=O)c2ccc(Br)cc2)cc1 (stereo not shown) [23d]     =        4.27
12  Cc1ccc2c(c1)[C@]1(N[C@@H](Cc3ccccc3)[C@H](c3ccc(Cl)cc3)[C@H]1C(=O)c1ccc([N+](=O)[O-])cc1)C(=O)N2 [24c]     <        4.00
13  O=C(c1ccc(F)cc1)[C@@H]1[C@@H](c2ccc(Cl)cc2)[C@H](Cc2ccccc2)N[C@@]12C(=O)Nc1ccccc12 [24d]     <        4.00

* * *

# Test system: promastigotes of Leishmania donovani (MHOM/IN/1983/AG83)
# experimental_details: In vitro antileishmanial activity, Trypan blue dye exclusion method
# Assay type: cell-based
# condition_label: Leishmania donovani, 72 h, L. donovani promastigotes, 22 ± 1 °C, 50% growth inhibition, read-out: IC50 Using Trypan Blue Dye Exclusion Method

compound	target_desc	IC50
O=C(c1ccc([N+](=O)[O-])cc1)[C@@H]1[C@@H](c2ccc(Cl)cc2)[C@H](Cc2ccccc2)N[C@@]12C(=O)Nc1c(Br)cccc12 [24e]	promastigotes of Leishmania donovani (MHOM/IN/1983/AG83)	0.96 µM
COc1ccc([C@H]2[C@H](Cc3cc4ccccc4[nH]3)N[C@@]3(C(=O)Nc4ccccc43)[C@@H]2C(=O)c2ccc(Br)cc2)cc1 [25b]	promastigotes of Leishmania donovani (MHOM/IN/1983/AG83)	> 10 µM
COc1ccc2c(c1)[C@]1(N[C@@H](Cc3ccccc3)[C@H](c3ccc(Cl)cc3)[C@H]1C(=O)c1ccc([N+](=O)[O-])cc1)C(=O)N2 [24a]	promastigotes of Leishmania donovani (MHOM/IN/1983/AG83)	2.43 µM
COc1ccc(C2C3CCCN3C3(C(=O)Nc4ccc(F)cc43)C2C(=O)c2ccc(Br)cc2)cc1 (centres unmarked) [23c]	promastigotes of Leishmania donovani (MHOM/IN/1983/AG83)	> 20 µM
COc1ccc([C@@H]2[C@@H](C(=O)c3ccc(F)cc3)[C@]3(C(=O)Nc4ccc(F)cc43)N3CCC[C@@H]23)cc1 [23b]	promastigotes of Leishmania donovani (MHOM/IN/1983/AG83)	> 20 µM
Cc1ccc(C(=O)C2C(c3ccc(Br)cc3)C(Cc3ccccc3)NC23C(=O)Nc2ccc(I)cc23)cc1 (centres unmarked) [24f]	promastigotes of Leishmania donovani (MHOM/IN/1983/AG83)	1.62 µM
COc1ccc(C2C3CCCN3C3(C(=O)Nc4ccc([N+](=O)[O-])cc43)C2C(=O)c2ccc(Br)cc2)cc1 (centres unmarked) [23e]	promastigotes of Leishmania donovani (MHOM/IN/1983/AG83)	> 20 µM
Cc1ccc(C(=O)[C@@H]2[C@@H](c3ccc(Br)cc3)[C@H](Cc3ccccc3)N[C@@]23C(=O)Nc2ccc([N+](=O)[O-])cc23)cc1 [24b]	promastigotes of Leishmania donovani (MHOM/IN/1983/AG83)	≤ 10 µM
O=C(c1ccc(F)cc1)[C@@H]1[C@@H](c2ccc(Cl)cc2)[C@H](Cc2ccccc2)N[C@@]12C(=O)Nc1ccccc12 [24d]	promastigotes of Leishmania donovani (MHOM/IN/1983/AG83)	> 20 µM
Cc1ccc2c(c1)[C@]1(N[C@@H](Cc3ccccc3)[C@H](c3ccc(Cl)cc3)[C@H]1C(=O)c1ccc([N+](=O)[O-])cc1)C(=O)N2 [24c]	promastigotes of Leishmania donovani (MHOM/IN/1983/AG83)	> 20 µM
COc1ccc(C2C3CCCN3C3(C(=O)Nc4ccc(OC)cc43)C2C(=O)c2ccc(Br)cc2)cc1 (centres unmarked) [23d]	promastigotes of Leishmania donovani (MHOM/IN/1983/AG83)	≤ 10 µM
COc1ccc(C2C(Cc3c[nH]c4ccccc34)NC3(C(=O)Nc4ccc(F)cc43)C2C(=O)c2ccc(C3CCCCC3)cc2)cc1 (centres unmarked) [25d]	promastigotes of Leishmania donovani (MHOM/IN/1983/AG83)	3.55 µM
C[C@@H]1[C@H](O)[C@@H](C)/C=C/C=C/C=C/C=C/C=C/C=C/C=C/[C@H](O[C@@H]2O[C@H](C)[C@@H](O)[C@H](N)[C@@H]2O)C[C@@H]2O[C@](O)(C[C@@H](O)C[C@@H](O)[C@H](O)CC[C@@H](O)C[C@@H](O)CC(=O)O[C@H]1C)C[C@H](O)[C@H]2C(=O)O [Amphotericin B, reference compound]	promastigotes of Leishmania donovani (MHOM/IN/1983/AG83)	0.06 µM
O=C(c1ccccc1)[C@@H]1[C@@H](c2ccccc2)[C@@H]2CCCN2[C@@]12C(=O)Nc1ccc(Br)cc12 [23f]	promastigotes of Leishmania donovani (MHOM/IN/1983/AG83)	> 20 µM

* * *

# Tested on: promastigotes of Leishmania donovani (MHOM/IN/1983/AG83)
# experimental_details: In vitro antileishmanial activity, Trypan blue dye exclusion method
# Format: cell-based
# condition_label: L. donovani promastigotes, 72 h, 22 ± 1 °C, 50% growth inhibition; read-out: IC50 Using Trypan Blue Dye Exclusion Method
# Description: The compounds (23a–f, 24a–f, and 25a–g) were initially screened for their in vitro antileishmanial activity against promastigotes of Leishmania donovani (MHOM/IN/1983/AG83) utilizing the Trypan blue dye exclusion method and the plasmid relaxation assay using amphotericin B and camphothesin as standard reference drugs, respectively. The promastigotes were harvested from the culture vials, counted, and 2 × 10^6 cells/well were seeded in a 48-well culture plate. […]
readout_type: IC50 (µM)

> print(dat)
                                   compound  meas.value
1  COc1ccc(C2C3CCCN3C3(C(=O)Nc4ccc(OC)cc43)C2C(=O)c2ccc(Br)cc2)cc1 (centres unmarked) [23d]        7.78
2  Cc1ccc(C(=O)[C@@H]2[C@@H](c3ccc(Br)cc3)[C@H](Cc3ccccc3)N[C@@]23C(=O)Nc2ccc([N+](=O)[O-])cc23)cc1 [24b]        5.36

* * *

melting point values by entry
readout_type: melting point

> print(dat)
                                   molecule   readout.type     meas.value
1  COc1ccc(C2C(Cc3cc4ccccc4[nH]3)NC3(C(=O)Nc4ccc(C)cc43)C2C(=O)c2ccc(F)cc2)cc1 (centres unmarked) [25e]  melting point  103 to 105 °C
2  COc1ccc(C2C3CCCN3C3(C(=O)Nc4ccc(OC)cc43)C2C(=O)c2ccc(Br)cc2)cc1 (centres unmarked) [23d]  melting point  107 to 109 °C
3  CN(C)c1ccc(/C=N/N2C(=O)C(C#N)=CC23c2ccccc2NC2C=CC=CC23)cc1 (centres unmarked)  melting point  172 to 174 °C
4  COc1ccc([C@@H]2[C@@H](C(=O)c3ccc(F)cc3)[C@]3(C(=O)Nc4ccc(F)cc43)N3CCC[C@@H]23)cc1 [23b]  melting point  161 to 163 °C
5  COc1ccc2c(c1)C1(NC(Cc3cc4ccccc4[nH]3)C(c3ccc(Cl)cc3)C1C(=O)c1ccc(F)cc1)C(=O)N2 (centres unmarked) [25g]  melting point  142 to 145 °C

Data origin, for the record: paper PMC10302753
